- Tested on: SF-295 CNS
- assayProcedure: NCI-60 one-dose screen, 48 h (100 = growth as untreated, 0 = no growth, -100 = all killed)
- assayContext: 10 µM unless noted
About 83,000 compounds went through this panel and 20% of them were active in at least one assay; those are over-represented in the sample as a whole.
reportedProperty: growth (%)
Could you give me the number in %? Just the number is fine.

Observe how each entry below is paired with its result.
CC(=O)OCCCCCCn1c2ccccc2c2c3c(c4c5ccccc5n(C)c4c21)C(=O)N(O)C3=O
91.5
Fc1ccc(Nc2nnc(-c3ccc(Cl)cc3)o2)cc1
102
Cn1cc(-c2csc(-c3cn(C(=O)OC(C)(C)C)c4ccc(Br)cc34)n2)c2cccnc21
79.8
N=C(N)c1ccc(-c2ccc(-c3cc(F)cc(F)c3)o2)nc1
95.9
CC(=O)O[C@@H]1CCN2C(=O)N(C)c3ccccc3[C@@H]2C1
88.9

// query Reported growth, molecule NC1=C(C/C(N)=N\O)C(c2ccccc2Cl)c2c(ccc3ccccc23)O1 (stereo not given) : ____
// result 66.7

// query Reported growth, molecule CN(C)c1ccc(N)c2ccccc12 : ____
// result 43.4

// query Reported growth, molecule O=C1Nc2ccccc2/C1=C/c1cn(CCCn2c3ccccc3c(=O)c3ccccc32)c2ccccc12 : ____
// result 91.5

// query Reported growth, molecule Nc1c2c(nc3ccc(Cl)cc13)CC(c1ccc(O)cc1)CC2=O (stereo not given) : ____
// result 36.2

// query Reported growth, molecule C=C(C)[C@@H]1CC[C@]2(C)CC[C@]3(C)[C@H](CC[C@@H]4[C@@]5(C)CCCNC(C)(C)[C@@H]5CC[C@]43C)[C@@H]12 : ____
// result 106
